Recorded pIC50 for the following compounds
- Test system: P. falciparum 3D7 growth, pLDH absorbance
- measurement_description: blood-stage malaria parasite growth potency – strain 3D7, dose response (AID 2305)
pIC50: −log10 of the molar value.
parameter_measured: pIC50

>  <compound>
COc1ccc(C2SCC(=O)N2CCc2ccc(OC)c(OC)c2)cc1 (stereo not given)

>  <test_value>
6.51

$$$$
>  <compound>
Cc1cccc2[nH]c(-c3ccc(-c4cccc(CNCCN(C)C)c4)cc3)nc12

>  <test_value>
6.17

$$$$
>  <compound>
O=C(NC1CCN(Cc2ccccc2)CC1)c1ccc(-c2nc3cc(Cl)c(Cl)cc3[nH]2)s1

>  <test_value>
6.51

$$$$
>  <compound>
Cc1cc2ccc(CNCCc3ccccc3Br)cc2nc1N

>  <test_value>
6.29

$$$$
>  <compound>
Cc1cc(Br)cnc1CCCCNc1cc(=O)c2ccccc2[nH]1

>  <test_value>
5.94

$$$$
>  <compound>
O=C(N[C@H]1CCN(Cc2ccc(OCCCN3CCCCC3)cc2)C1)c1ccc(Oc2ccccc2)cc1

>  <test_value>
6.11

$$$$
>  <compound>
COc1ccc(C(=O)Nc2cc(Br)c3c(c2)CNCC3)cc1C(F)(F)F

>  <test_value>
5.97

$$$$
>  <compound>
N#Cc1ccc(-n2cc(C(=O)Nc3ccc4c(c3)CCN(C3CCC3)CC4)c(C(F)(F)F)n2)cc1

>  <test_value>
6.54

$$$$
>  <compound>
COc1cccc2c(NN=Cc3cccc(Cl)c3)ccnc12

>  <test_value>
6.08

$$$$
>  <compound>
Cc1ccc(CC(C)NCC(O)c2cccc(C#N)c2)cc1 (stereo not given)

>  <test_value>
6.03

$$$$

----------
Recorded log10 IC50 for the following compounds
- Test system: P. falciparum 3D7 growth, pLDH absorbance
- measurement_description: blood-stage malaria parasite growth potency – strain 3D7, dose response (AID 2305)
parameter_measured: log10 IC50 (log10 of the value in nM)

>  <compound>
OC(CNc1ccnc(Nc2cccc(Cl)c2)n1)c1cccc(C(F)(F)F)c1 (stereo not given)

>  <study_system>
P. falciparum 3D7 growth, pLDH absorbance

>  <log10 IC50>
2.71

$$$$
>  <compound>
C=CCn1c(SCC(=O)Nc2cc(Cl)ccc2Cl)nc2sc(C)cc2c1=O

>  <study_system>
P. falciparum 3D7 growth, pLDH absorbance

>  <log10 IC50>
1.85

$$$$
>  <compound>
Fc1cccc(COc2ccc(Nc3ncnc4sc(C#Cc5ncc[nH]5)cc34)cc2Cl)c1

>  <study_system>
P. falciparum 3D7 growth, pLDH absorbance

>  <log10 IC50>
2.11

$$$$
>  <compound>
CC(C)C[C@H](NC(=O)c1cc(-c2ccc(F)cc2)no1)C(=O)O (tested in a mixture with another compound)

>  <study_system>
P. falciparum 3D7 growth, pLDH absorbance

>  <log10 IC50>
2.99

$$$$
>  <compound>
O=C(Nc1cccc(Cl)c1Cl)N[C@H]1CCN(CCCCCNC(=O)[C@@H]2C[C@H]2c2ccc(Cl)c(Cl)c2)C1

>  <study_system>
P. falciparum 3D7 growth, pLDH absorbance

>  <log10 IC50>
3.11

$$$$
>  <compound>
Cc1nccn1CCNC(=O)CN1CCC2(CCC1=O)CC(=O)c1ccccc1O2 (stereo not given)

>  <study_system>
P. falciparum 3D7 growth, pLDH absorbance

>  <log10 IC50>
2.90

$$$$
>  <compound>
Cc1cccc2[nH]c(-c3cccc(-c4ccc(C(=O)N5CCCCC5C(C)O)cc4)c3)nc12 (stereo not given)

>  <study_system>
P. falciparum 3D7 growth, pLDH absorbance

>  <log10 IC50>
2.57

$$$$
>  <compound>
COc1ccc(CN2CCCN(Cc3cccc(C(=O)Nc4ccc(C(C)(C)C)cc4)c3)CC2)cc1

>  <study_system>
P. falciparum 3D7 growth, pLDH absorbance

>  <log10 IC50>
2.95

$$$$
>  <compound>
Cc1cc(-c2ccnc(Nc3cccc(C#N)c3)n2)cc(C)c1O

>  <study_system>
P. falciparum 3D7 growth, pLDH absorbance

>  <log10 IC50>
2.96

$$$$
>  <compound>
CC(=O)c1ccc(S(=O)(=O)N2CCC(C(=O)Nc3ccccc3N3CCCC3)CC2)cc1

>  <study_system>
P. falciparum 3D7 growth, pLDH absorbance

>  <log10 IC50>
2.92

$$$$
>  <compound>
COc1cccc(C(=O)NCc2n[nH]c(=S)n2-c2ccc(Cl)c(Cl)c2)c1

>  <study_system>
P. falciparum 3D7 growth, pLDH absorbance

>  <log10 IC50>
2.23

$$$$
>  <compound>
Cc1ccc(F)c(OCC2CCCN(c3ccc(C(=O)NC4CC4)cn3)C2)c1 (stereo not given)

>  <study_system>
P. falciparum 3D7 growth, pLDH absorbance

>  <log10 IC50>
2.89

$$$$
>  <compound>
Cc1cccc2[nH]c(-c3cccc(-c4cccc(NC(=O)Nc5ccc(Cl)cc5)c4)c3)nc12

>  <study_system>
P. falciparum 3D7 growth, pLDH absorbance

>  <log10 IC50>
2.38

$$$$
>  <compound>
C=CCN1C(=O)C(C(C)=O)=C(O)C1c1ccccc1 (stereo not given)

>  <study_system>
P. falciparum 3D7 growth, pLDH absorbance

>  <log10 IC50>
1.70

$$$$
>  <compound>
Oc1ccccc1CN1CCC2(CCCN(Cc3ccccc3F)C2)C1 (stereo not given)

>  <study_system>
P. falciparum 3D7 growth, pLDH absorbance

>  <log10 IC50>
2.83

$$$$
>  <compound>
O=[N+]([O-])c1ccc(C=NNc2nc3ccccc3[nH]2)cc1

>  <study_system>
P. falciparum 3D7 growth, pLDH absorbance

>  <log10 IC50>
2.45

$$$$
>  <compound>
CCCNC(=O)c1cncc(-c2ccc(CNC3Cc4ccccc4C3)cc2)c1

>  <study_system>
P. falciparum 3D7 growth, pLDH absorbance

>  <log10 IC50>
2.93

$$$$
>  <compound>
NC(=O)C1Cc2ccccc2CN1CC(=O)Nc1ccccc1Sc1ccccc1 (stereo not given)

>  <study_system>
P. falciparum 3D7 growth, pLDH absorbance

>  <log10 IC50>
1.85

$$$$
>  <compound>
Cc1noc(C)c1-c1ccc2c(Nc3ccccc3C(C)(C)C)c(C(=O)NC3CCCC3)cnc2c1

>  <study_system>
P. falciparum 3D7 growth, pLDH absorbance

>  <log10 IC50>
3.02

$$$$
>  <compound>
CC1(C)N=C(N)N=C(N)N1c1ccccc1

>  <study_system>
P. falciparum 3D7 growth, pLDH absorbance

>  <log10 IC50>
2.52

$$$$
>  <compound>
CCC(CC)N1CCN(CC(=O)Nc2ccc([N+](=O)[O-])cc2C(=O)Nc2cccc(OC)c2)CC1

>  <study_system>
P. falciparum 3D7 growth, pLDH absorbance

>  <log10 IC50>
2.94

$$$$
>  <compound>
FC(F)(F)c1ccc(CNCC2CCN(Cc3ccc4c(c3)OCO4)CC2)cc1

>  <study_system>
P. falciparum 3D7 growth, pLDH absorbance

>  <log10 IC50>
3.13

$$$$
>  <compound>
NS(=O)(=O)c1ccc(CNc2ccc3ncc(-c4ccc(Cl)cc4)n3n2)cc1

>  <study_system>
P. falciparum 3D7 growth, pLDH absorbance

>  <log10 IC50>
2.45

$$$$
>  <compound>
COc1ccccc1CCNc1nc(C)cc(N[C@@H](Cc2ccccc2)C(=O)NCCc2ccccc2)n1

>  <study_system>
P. falciparum 3D7 growth, pLDH absorbance

>  <log10 IC50>
3.05

$$$$
>  <compound>
Cc1ccc(S(=O)(=O)n2nccc2-c2c(-c3ccc(Cl)cc3)noc2C)cc1

>  <study_system>
P. falciparum 3D7 growth, pLDH absorbance

>  <log10 IC50>
2.91

$$$$
>  <compound>
Cc1cc(F)ccc1-c1nc(Nc2ccncc2)c2ccn(C)c2n1

>  <study_system>
P. falciparum 3D7 growth, pLDH absorbance

>  <log10 IC50>
2.97

$$$$
>  <compound>
COC(=O)c1ccc(NC(=O)Nc2cccc(CCNCc3ccccc3)c2)cc1

>  <study_system>
P. falciparum 3D7 growth, pLDH absorbance

>  <log10 IC50>
2.94

$$$$
>  <compound>
Cc1cc(C2CCN(CCCCNC(=O)c3ccc(NC(=O)c4ccc(Cl)cc4)cc3)CC2)c(C)cc1OCc1nccn1C

>  <study_system>
P. falciparum 3D7 growth, pLDH absorbance

>  <log10 IC50>
2.92

$$$$
>  <compound>
CCCC(C)Nc1nc(C)cc(N[C@@H](Cc2ccccc2)C(=O)Nc2ccc(OC)cc2)n1 (stereo not given in full)

>  <study_system>
P. falciparum 3D7 growth, pLDH absorbance

>  <log10 IC50>
3.05

$$$$
>  <compound>
CCc1ccc(-n2c(NC(=O)c3ccccc3)nc3ccc(S(=O)(=O)NC(C)C(C)C)cc32)cc1 (stereo not given)

>  <study_system>
P. falciparum 3D7 growth, pLDH absorbance

>  <log10 IC50>
2.97

$$$$
>  <compound>
O=C(Nc1ccc(OC2CCN(Cc3ccc(F)cc3)CC2)c(Cl)c1)c1cccs1

>  <study_system>
P. falciparum 3D7 growth, pLDH absorbance

>  <log10 IC50>
2.51

$$$$
>  <compound>
CCc1c(C)nc(-n2nc(C)cc2NC(=O)C2c3ccccc3Oc3ccccc32)[nH]c1=O

>  <study_system>
P. falciparum 3D7 growth, pLDH absorbance

>  <log10 IC50>
2.98

$$$$
>  <compound>
OC1CCC(Nc2ccc3ncc(-c4ccc(Cl)cc4)n3n2)CC1 (stereo not given)

>  <study_system>
P. falciparum 3D7 growth, pLDH absorbance

>  <log10 IC50>
2.91

$$$$
>  <compound>
Cc1cc2c(cc1C(F)(F)F)N(C(=O)Nc1ccc(C(=O)NCCN3CCCC3)cc1)CC2

>  <study_system>
P. falciparum 3D7 growth, pLDH absorbance

>  <log10 IC50>
2.51

$$$$
>  <compound>
COc1cc(F)c2ncc(Cl)c(CCN3CCC(NCc4cc5c(cn4)OCCO5)CC3)c2c1

>  <study_system>
P. falciparum 3D7 growth, pLDH absorbance

>  <log10 IC50>
2.68

$$$$
>  <compound>
Cc1cnc(Nc2ccccc2)nc1NCCC(=O)Nc1ccccc1

>  <study_system>
P. falciparum 3D7 growth, pLDH absorbance

>  <log10 IC50>
3.06

$$$$
>  <compound>
COc1ccc(C=C2SC(=N)N(c3ccccc3OC)C2=O)cc1

>  <study_system>
P. falciparum 3D7 growth, pLDH absorbance

>  <log10 IC50>
2.48

$$$$
>  <compound>
O[C@@H](c1ccc2ccccc2c1)[C@@H]1CN(CCc2ccccc2)CC[C@@]1(O)c1ccccc1

>  <study_system>
P. falciparum 3D7 growth, pLDH absorbance

>  <log10 IC50>
2.74

$$$$
>  <compound>
NC(N)=NC(=O)Nc1cc(Cl)c(Cl)c(C(F)(F)F)c1

>  <study_system>
P. falciparum 3D7 growth, pLDH absorbance

>  <log10 IC50>
2.79

$$$$
>  <compound>
COc1ccc2nccc([C@@H](O)CN3CCC(NC(=O)c4cc5c(Cl)cc(Cl)cc5[nH]4)CC3)c2c1

>  <study_system>
P. falciparum 3D7 growth, pLDH absorbance

>  <log10 IC50>
2.36

$$$$

Ref: PubChem BioAssay AID2305
